test_target: T1, VP1 pentamer of BKV genotype IV (recombinant) (BK virus genotype IV, UniProt P14996 30-300)
T1 construct: also called GIV; VP1 BKV subtype IV; not shown: N-terminal His-tag of pESPRIT002; C-terminal biotin acceptor peptide (BAP) of pESPRIT002
method_notes: ELISA, coated VP1 pentamer
Entries and their EC50 values follow.

Use these answered entries as a reference point.
antibody B7P6 (antibody, V domains shown) VH: EVQLVQSGAELKKPGESLKISCKGSGFTFTNYWIAWVRQMPGKGLEWMGIIYPDDSDARYSPSFEGQVTISVDKSISTAYLQWSSLKASDTAIYYCARGGFCSGSVCYNPAWFDLWGQGTLVTVSS VL: DIQMTQSPSSLSASVGDRVTITCRASQTINTYLNWYLQKPGKAPKLLISDASSLETGVPSRFSGSGSGTDFTLTISSLQPDDFATYYCQQSYSTPLTFGGGTKVEIK; 0.1 µg/mL
antibody E9P7 (antibody, V domains shown) VH: EVQLVESGGGLVQPGGSLRLSCTASGFTFRSYTMDWVRQAPGKGLEWVSCISGSSNHKYYADSVRGRFTISRDNAKNSLLLQMNSLRAEDSAVYYCAREDDILTPLYGMDVWGPGTTVTVSS VL: EIVLTQSPDTLSLSPGARATLSCRASQSVRSNYLAWYQQKPGQAPRLLIYGASSRATAIPDRFSGSGSGTDFTLTITRLEPEDFAVYYCHQYGSSPRTFGQGTKVEIK; 0.2 µg/mL
antibody G6P7 (antibody, V domains shown) VH: QVQLQESGPGLVRPSETLSLTCTVSGGSISPYYWNWIRQPPGKGLEWIGYIYYSGNTKYNPSLKSRVTISVDTSKNQFSLKLSSVSAADTAVYYCARDSCSGTCYLGDNWFDPWGQGTLVTVSS VL: QSVLTQPPPVSGAPGQRVTISCTGSSSNIGANNDVHWYQHLPGTAPKLLIYGNNHRPSGVPDRFSGSKSGTSASLAITGLQAEDEADYYCQSYDSSLSTSKVFGGGTKLTVL; 2.5 µg/mL

// next item, EC50 requested
Notebook: antibody E7P5 (antibody, V domains shown) VH: QVQLQESGPGLVKPSETLSLTCTVSGGSIRNSYWSWIRQSPGKGLEWIGYIYYTGSTNSNPSLKSRLTVSVHMSQNQISLKLNSVTPADTAVYYCAQGGGSGDLHYWGQGTLVTVSS VL: QSALTQPASVSGSPGQSITISCTGTRSDVGGYNYVSWYQQHPGKAPKLIIYDISSRPSGVSNRFSASKSGNTASLTISGLQAEDEADYYCISFATGYTWVFGGGTSLTVL , EC50 read as 0.08 µg/mL
